settings: in acetonitrile, 298.15 K

{"smi": "CC(C)C(=O)OCC(=O)[C@@]12O[C@H](C3CCCCC3)O[C@@H]1C[C@H]1[C@@H]3CCC4=CC(=O)C=C[C@]4(C)[C@H]3[C@@H](O)C[C@@]12C", "solubility (mole fraction)": 0.00937}

###

details: in n-butanol, 300.65 K

{"smi": "CC(C)C(=O)OCC(=O)[C@@]12O[C@H](C3CCCCC3)O[C@@H]1C[C@H]1[C@@H]3CCC4=CC(=O)C=C[C@]4(C)[C@H]3[C@@H](O)C[C@@]12C", "solubility (mole fraction)": 0.0993}

###

settings: in toluene, 300.65 K

{"smi": "CC(C)C(=O)OCC(=O)[C@@]12O[C@H](C3CCCCC3)O[C@@H]1C[C@H]1[C@@H]3CCC4=CC(=O)C=C[C@]4(C)[C@H]3[C@@H](O)C[C@@]12C", "solubility (mole fraction)": 0.0544}

###

conditions: in ethyl acetate, 295.65 K
experimentalEndpoint: solubility (mole fraction)

{"smi": "CC(C)C(=O)OCC(=O)[C@@]12O[C@H](C3CCCCC3)O[C@@H]1C[C@H]1[C@@H]3CCC4=CC(=O)C=C[C@]4(C)[C@H]3[C@@H](O)C[C@@]12C", "experimentalEndpoint": "solubility (mole fraction)", "readoutValue": 0.088}

###

details: in n-propanol, 298.15 K

{"smi": "CC(C)C(=O)OCC(=O)[C@@]12O[C@H](C3CCCCC3)O[C@@H]1C[C@H]1[C@@H]3CCC4=CC(=O)C=C[C@]4(C)[C@H]3[C@@H](O)C[C@@]12C", "solubility (mole fraction)": 0.0437}

###

settings: in acetonitrile, 288.15 K
experimentalEndpoint: solubility (mole fraction)

{"smi": "CC(C)C(=O)OCC(=O)[C@@]12O[C@H](C3CCCCC3)O[C@@H]1C[C@H]1[C@@H]3CCC4=CC(=O)C=C[C@]4(C)[C@H]3[C@@H](O)C[C@@]12C", "readoutValue": 0.00687}

###

details: in ethanol, 303.15 K
experimentalEndpoint: solubility (mole fraction)

{"smi": "CC(C)C(=O)OCC(=O)[C@@]12O[C@H](C3CCCCC3)O[C@@H]1C[C@H]1[C@@H]3CCC4=CC(=O)C=C[C@]4(C)[C@H]3[C@@H](O)C[C@@]12C", "experimentalEndpoint": "solubility (mole fraction)", "readoutValue": 0.0129}

###

settings: in ethanol, 310.65 K

{"smi": "CC(C)C(=O)OCC(=O)[C@@]12O[C@H](C3CCCCC3)O[C@@H]1C[C@H]1[C@@H]3CCC4=CC(=O)C=C[C@]4(C)[C@H]3[C@@H](O)C[C@@]12C", "solubility (mole fraction)": 0.0204}

###

conditions: in toluene, 283.15 K
experimentalEndpoint: solubility (mole fraction)

{"smi": "CC(C)C(=O)OCC(=O)[C@@]12O[C@H](C3CCCCC3)O[C@@H]1C[C@H]1[C@@H]3CCC4=CC(=O)C=C[C@]4(C)[C@H]3[C@@H](O)C[C@@]12C", "experimentalEndpoint": "solubility (mole fraction)", "readoutValue": 0.0342}

###

conditions: in n-butanol, 308.15 K

{"smi": "CC(C)C(=O)OCC(=O)[C@@]12O[C@H](C3CCCCC3)O[C@@H]1C[C@H]1[C@@H]3CCC4=CC(=O)C=C[C@]4(C)[C@H]3[C@@H](O)C[C@@]12C", "solubility (mole fraction)": 0.118}

###

conditions: in acetonitrile, 303.15 K

{"smi": "CC(C)C(=O)OCC(=O)[C@@]12O[C@H](C3CCCCC3)O[C@@H]1C[C@H]1[C@@H]3CCC4=CC(=O)C=C[C@]4(C)[C@H]3[C@@H](O)C[C@@]12C", "solubility (mole fraction)": 0.0109}

###

conditions: in isopropanol, 285.65 K

{"smi": "CC(C)C(=O)OCC(=O)[C@@]12O[C@H](C3CCCCC3)O[C@@H]1C[C@H]1[C@@H]3CCC4=CC(=O)C=C[C@]4(C)[C@H]3[C@@H](O)C[C@@]12C", "solubility (mole fraction)": 0.013}

###

settings: in toluene, 303.15 K
experimentalEndpoint: solubility (mole fraction)

{"smi": "CC(C)C(=O)OCC(=O)[C@@]12O[C@H](C3CCCCC3)O[C@@H]1C[C@H]1[C@@H]3CCC4=CC(=O)C=C[C@]4(C)[C@H]3[C@@H](O)C[C@@]12C", "experimentalEndpoint": "solubility (mole fraction)", "readoutValue": 0.0579}

###

details: in acetonitrile, 300.65 K

{"smi": "CC(C)C(=O)OCC(=O)[C@@]12O[C@H](C3CCCCC3)O[C@@H]1C[C@H]1[C@@H]3CCC4=CC(=O)C=C[C@]4(C)[C@H]3[C@@H](O)C[C@@]12C", "solubility (mole fraction)": 0.0101}

###

conditions: in ethyl acetate, 285.65 K

{"smi": "CC(C)C(=O)OCC(=O)[C@@]12O[C@H](C3CCCCC3)O[C@@H]1C[C@H]1[C@@H]3CCC4=CC(=O)C=C[C@]4(C)[C@H]3[C@@H](O)C[C@@]12C", "solubility (mole fraction)": 0.0653}

###

settings: in n-propanol, 290.65 K
experimentalEndpoint: solubility (mole fraction)

{"smi": "CC(C)C(=O)OCC(=O)[C@@]12O[C@H](C3CCCCC3)O[C@@H]1C[C@H]1[C@@H]3CCC4=CC(=O)C=C[C@]4(C)[C@H]3[C@@H](O)C[C@@]12C", "experimentalEndpoint": "solubility (mole fraction)", "readoutValue": 0.029}

###

details: in ethyl acetate, 280.65 K

{"smi": "CC(C)C(=O)OCC(=O)[C@@]12O[C@H](C3CCCCC3)O[C@@H]1C[C@H]1[C@@H]3CCC4=CC(=O)C=C[C@]4(C)[C@H]3[C@@H](O)C[C@@]12C", "solubility (mole fraction)": 0.0559}

###

conditions: in ethanol, 288.15 K
experimentalEndpoint: solubility (mole fraction)

{"smi": "CC(C)C(=O)OCC(=O)[C@@]12O[C@H](C3CCCCC3)O[C@@H]1C[C@H]1[C@@H]3CCC4=CC(=O)C=C[C@]4(C)[C@H]3[C@@H](O)C[C@@]12C", "readoutValue": 0.00478}

###

settings: in isopropanol, 303.15 K
experimentalEndpoint: solubility (mole fraction)

{"smi": "CC(C)C(=O)OCC(=O)[C@@]12O[C@H](C3CCCCC3)O[C@@H]1C[C@H]1[C@@H]3CCC4=CC(=O)C=C[C@]4(C)[C@H]3[C@@H](O)C[C@@]12C", "readoutValue": 0.0359}

###

conditions: in ethanol, 295.65 K

{"smi": "CC(C)C(=O)OCC(=O)[C@@]12O[C@H](C3CCCCC3)O[C@@H]1C[C@H]1[C@@H]3CCC4=CC(=O)C=C[C@]4(C)[C@H]3[C@@H](O)C[C@@]12C", "solubility (mole fraction)": 0.00796}

###

details: in n-propanol, 305.65 K

{"smi": "CC(C)C(=O)OCC(=O)[C@@]12O[C@H](C3CCCCC3)O[C@@H]1C[C@H]1[C@@H]3CCC4=CC(=O)C=C[C@]4(C)[C@H]3[C@@H](O)C[C@@]12C", "solubility (mole fraction)": 0.0644}

###

conditions: in ethyl acetate, 303.15 K
experimentalEndpoint: solubility (mole fraction)

{"smi": "CC(C)C(=O)OCC(=O)[C@@]12O[C@H](C3CCCCC3)O[C@@H]1C[C@H]1[C@@H]3CCC4=CC(=O)C=C[C@]4(C)[C@H]3[C@@H](O)C[C@@]12C", "experimentalEndpoint": "solubility (mole fraction)", "readoutValue": 0.109}

###

conditions: in n-butanol, 285.65 K

{"smi": "CC(C)C(=O)OCC(=O)[C@@]12O[C@H](C3CCCCC3)O[C@@H]1C[C@H]1[C@@H]3CCC4=CC(=O)C=C[C@]4(C)[C@H]3[C@@H](O)C[C@@]12C", "solubility (mole fraction)": 0.0743}

###

settings: in n-propanol, 303.15 K

{"smi": "CC(C)C(=O)OCC(=O)[C@@]12O[C@H](C3CCCCC3)O[C@@H]1C[C@H]1[C@@H]3CCC4=CC(=O)C=C[C@]4(C)[C@H]3[C@@H](O)C[C@@]12C", "solubility (mole fraction)": 0.0567}

###

details: in toluene, 290.65 K
experimentalEndpoint: solubility (mole fraction)

{"smi": "CC(C)C(=O)OCC(=O)[C@@]12O[C@H](C3CCCCC3)O[C@@H]1C[C@H]1[C@@H]3CCC4=CC(=O)C=C[C@]4(C)[C@H]3[C@@H](O)C[C@@]12C", "readoutValue": 0.0421}

###

conditions: in acetonitrile, 293.15 K

{"smi": "CC(C)C(=O)OCC(=O)[C@@]12O[C@H](C3CCCCC3)O[C@@H]1C[C@H]1[C@@H]3CCC4=CC(=O)C=C[C@]4(C)[C@H]3[C@@H](O)C[C@@]12C", "solubility (mole fraction)": 0.008}
